Target: T1, SHANK1, Q9Y566
T1 sequence (Q9Y566 658-767, limits assumed, looked up): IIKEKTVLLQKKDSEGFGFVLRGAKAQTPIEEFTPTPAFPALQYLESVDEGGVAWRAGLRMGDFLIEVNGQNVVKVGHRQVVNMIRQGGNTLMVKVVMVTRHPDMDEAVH
Experiment: holdup assay
Parameters: key: below the threshold = too weak to quantify, mostly under pKd 3.1 to 4
Conditions: plain residues with an end cap or a label only (N-terminal biotin on a linker: ado-ado)
Recorded endpoint: pKd

>>> print(df.to_string())
                        binder  recorded_endpoint                value
0  NIAESLESLV [PTPRZ1, P23471]                pKd  below the threshold
1   DTKNYKQTSV [CRIPT, Q9P021]                pKd  below the threshold
2  AAVENKVTDL [PLXNB1, O43157]                pKd  below the threshold
3    SRSVVESDEL [MYPN, Q86TC9]                pKd  below the threshold
4   ELSATVTTDC [TRIP6, Q15654]                pKd                 3.63
5    TRKRSGEAAV [PFKM, P08237]                pKd  below the threshold
6   DGVNEKVSCV [HTR2A, P28223]                pKd  below the threshold
7    STKRKLASAV [NCF1, P14598]                pKd  below the threshold
8    LAHVKHKEQI [AQP3, Q92482]                pKd  below the threshold
